The measured values listed here are drawn from ChEMBL document CHEMBL4651341.

Answer each item with its documented Tmax.
# Measurement description: Mean time to peak plasma concentration in Swiss albino male mice at […] per compound (administered orally in a mixture of 5 compounds to 3 mice) assessed by LCMS/MS.
# Format: ADME, organism-based
# Condition details: mouse, po
Give a bare numeral; the unit min is implied.

Task: Could you tell me which Tmax is on file for CC(C)c1nn2cnc(-c3cccc(C(F)(F)F)c3)cc2c1-c1c(F)cc(O)cc1F ?
Result: 15

Task: Another: Oc1ccc(-c2cnc3cnc(C4=COCCC4)cn23)cc1
Result: 0.6

Task: Another: Cc1nc2cnc(-c3cccc(C(F)(F)C(F)(F)F)c3)cn2c1-c1c(F)cc(O)cc1F
Result: 15

Task: Another: Fc1ccc(-c2cn3c(-c4ccc5[nH]ncc5c4F)c(C4CC4)nc3cn2)cc1C(F)(F)F
Result: 60

Task: Another: CC(C)c1cc(-c2cn3c(-c4ccc5[nH]ncc5c4F)c(C(F)(F)F)nc3cn2)ccc1F
Result: 25
